Assay: Pharmacokinetics of rivaroxaban in rats, alone and after multiple doses of almonertinib
Type: in vivo, Sprague-Dawley (SD) rats
Details: male, Sprague-Dawley, rat, plasma, po, 2 mg/kg, rats, oral rivaroxaban 2 mg/kg after almonertinib 15 mg/kg for nine days (group 5), mean ± SD, n = 6; read-out: CLz/F (converted)
Description: Analytes were measured using UPLC-MS/MS, which was equipped with an LC-30A ultra-performance liquid chromatography (Shimadzu, Kyoto, Japan) and Sciex Triple Quad 5,500 tandem triple quadrupole mass spectrometer (AB Sciex, Framingham, MA, United States). Chromatographic separation was performed using an XSelect HSS T3 column (2.1 mm × 100 mm, 2.5 µm, Waters, Milford, MA, United States) at 40°C by gradient elution. The mobile phase consisted of water (A) and acetonitrile (0.1% formic acid, B). […]
MEASURE NAME: CL/F (mL/min/kg)

QUERY SMILES	MEASURE NAME	RESULT
O=C(NC[C@H]1CN(c2ccc(N3CCOCC3=O)cc2)C(=O)O1)c1ccc(Cl)s1	CL/F	10
